Measured protein stability index, listed per entry for reference.
# EXPERIMENT SUMMARY: protein stability index of a GFP-peptide fusion (GPS, HEK-293T) (PSI 1-6); higher = more stable;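 further: 24-mer peptide tiles fused after GFP, lentivirally expressed, FACS-sorted into six equal bins by GFP/DsRed ratio, decoded by Illumina sequencing, PSI is the read-weighted mean bin number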
# CONDITION INFO: treatment: DMSO; c terminus: a fixed tail appended
Enter the number alone.

INSERT INTO results (primary_sequence, measured_number) VALUES
  ('DVRLDREHRVAGIFPRLSFKDKST [CLPTM1]', 3.79),
  ('ERVDGRRLVYKFGKNSSGWKEEEV [ELF3]', 4.11),
  ('RWDLSPEQIKTRTEELIVQTKQVY [NLN]', 3.44),
  ('MSPLQAMSSYTVAGRNVLRWDLSP [NLN]', 2.06);

Task: What value of measured protein stability index is listed for QRISCFQSTVKCLTVLQRLDVWLS [WDR41] ?
Result: 2.45

Task: Also MTLPLLRQTSTKAVQHFYNIKLEG [ESRRG] , if possible.
Result: 2.48

Task: Also TVSTSEVTSQQEPQIPVDRGSETT [TAF7L] , if possible.
Result: 5.49

Task: Also LSLHVKSLGASPTVAGIVGSSYGI [MFSD9] , if possible.
Result: 2.71

Task: Also HTPGTPKSAILVPSEKKVAIIRTP [MAP2] , if possible.
Result: 3.96

Task: Also DHKPKLCRLAKGENGYGFHLNAIR [PDZK1] , if possible.
Result: 2.25

* * *

Measured protein stability index, listed per entry for reference.
# EXPERIMENT SUMMARY: protein stability index of a GFP-peptide fusion (GPS, HEK-293T) (PSI 1-6); higher = more stable
# CONDITION INFO: treatment: MLN4924 1 uM, 8 h; c terminus: a fixed tail appended
Enter the number alone.

Reference set, count: 3
INSERT INTO assay_data (primary_sequence, metric_name, measured_number) VALUES
  ('FTVGSVLGQILVSVAGWSLFSLNV [SLC19A2]', 'protein stability index', 3.1),
  ('CQEQIEALLESSLRQAQQNMDPKA [CCND1]', 'protein stability index', 4.63),
  ('LIQQFLTLRPDQQLHIFNTLRSHL [CDS2]', 'protein stability index', 2.34);

Task: What value of measured protein stability index is listed for VSMETYHVTLTLPPTQLEVNLEEI [C2CD2L] ?
Result: 2.27

Task: Also LDNCVEVGRIANTYNLTEVDKYVN [KLHL13] , if possible.
Result: 3.94

Task: Also ADFKGVLQRPSYKFFFKSMDDDFG [DVL3] , if possible.
Result: 2.67

* * *

# EXPERIMENT SUMMARY: protein stability index of a GFP-peptide fusion (GPS, HEK-293T) (PSI 1-6); higher = more stable
# CONDITION INFO: treatment: DMSO; c terminus: a fixed tail appended
Each entry gets n if its protein stability index stays under 4, and y if its protein stability index is 4 or above.

INSERT INTO measurements (primary_sequence, assigned_label) VALUES
  ('NSVNDQTKILVVNAAYFVGKWMKK [SERPINB5]', 'n'),
  ('IYVHILKDTRMAEEYCHKHYDRNK [VPS39]', 'n'),
  ('TLRDHFKGISSHSRSSLMPLRNDV [SLC2A12]', 'n'),
  ('MAGLSKEPNTLRAPRVRTAFTMEQ [VENTX]', 'n'),
  ('SEADASHCIQQILESVNHCHLNGI [CAMK2D]', 'n');

Task: Is reported protein stability index greater than or equal to 4 here: APTADDDDDDHDDHEDNDKMNDSE [NOL4L]
Result: y

Task: Also DFGACDGGLLTGNEKITMQNLNDR [KRT13] , if possible.
Result: y

Task: Also EESGSSSASEEEDTKPKPTKRKRK [INTS3] , if possible.
Result: y

Task: Also QYYRTIEELQNKILTATVDNANIL [KRT17] , if possible.
Result: n

Task: Also YARYHQAFADRDQSERQRHESQQL [TEKT4] , if possible.
Result: n

Task: Also TPLTFTKVSEGQADIMISFVRGDH [MMP1] , if possible.
Result: n

Task: Also ESRRQQILREFEELHRRLDEEQQV [TRIM39] , if possible.
Result: y

* * *

# EXPERIMENT SUMMARY: protein stability index of a GFP-peptide fusion (GPS, HEK-293T) (PSI 1-6); higher = more stable
# CONDITION INFO: treatment: DMSO; c terminus: a fixed tail appended
METRIC NAME: protein stability index

Reference set, count: 3
INSERT INTO measurements (primary_sequence, metric_name, result) VALUES
  ('VFFVCFVPYHIARIPYTKSQTEAH [P2RY14]', 'protein stability index', 3.57),
  ('SKLRNYRKDLAKLHREVRSTPLTA [VTI1B]', 'protein stability index', 3),
  ('VKKCIFLLFINHRLVESTSLRKAI [MLH1]', 'protein stability index', 3.14);

Kindly review the next sequence as well.
Task: What value of measured protein stability index is listed for MSPGDCPPETTETPKCSSPRGQEG [YJU2B] ?
Result: 5.44

* * *

# EXPERIMENT SUMMARY: protein stability index of a GFP-peptide fusion (GPS, HEK-293T) (PSI 1-6); higher = more stable
# CONDITION INFO: treatment: DMSO; c terminus: a fixed tail appended
Class definitions on protein stability index: 0 = under 3, 1 = from 3 up to 4, 2 = 4 and over

INSERT INTO assay_data (primary_sequence, assigned_label) VALUES
  ('DTDVDMEGLRRRRGREAGPPQPMV [PBXIP1]', 2);

Task: Record AAGEQLQQQHVSCQVFPERLAQGN [ATP23] — which class?
Result: 2

Task: Also AVIGNFLYVVGGQSNYDTKGKTAV [KLHL13] , if possible.
Result: 0

Task: Also TKIRALQGSLENMSKLLKRQNDIL [CD207] , if possible.
Result: 0

Task: Also ASLDNGGCALTTFSVLEGEKNNHR [SOAT1] , if possible.
Result: 2

* * *

Measured protein stability index, listed per entry for reference.
# EXPERIMENT SUMMARY: protein stability index of a GFP-peptide fusion (GPS, HEK-293T) (PSI 1-6); higher = more stable
# CONDITION INFO: treatment: DMSO; c terminus: a fixed tail appended
Enter the number alone.

INSERT INTO results (primary_sequence, measured_number) VALUES
  ('RAINLLFDIARIERCNQLLRALKL [ZER1]', 1.82),
  ('HGHMCIAFELLGKNTFEFLKENNF [CLK3]', 2.55),
  ('LYYQSQELPNGSVKEAPAPTPTSL [PDZK1]', 3.87);

Task: What value of measured protein stability index is listed for PLGSPSPRPRRAKRFASLSRFVET [ADAMTS4] ?
Result: 3.5

Task: Also ERNRMHGLNDALDNLRKVVPCYSK [NEUROD6] , if possible.
Result: 2.75

Task: Also NGDLSRSLSPSPLGSSAASTALER [FCHO1] , if possible.
Result: 4.78

Task: Also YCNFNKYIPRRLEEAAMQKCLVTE [RSAD1] , if possible.
Result: 2.32

Task: Also TYSLPPFLKAVLRQERVSLYPFQI [CDS1] , if possible.
Result: 2.19

* * *

# EXPERIMENT SUMMARY: protein stability index of a GFP-peptide fusion (GPS, HEK-293T) (PSI 1-6); higher = more stable
# CONDITION INFO: treatment: MLN4924 1 uM, 8 h; c terminus: a fixed tail appended
Measured protein stability index, listed per entry for reference.

Reference set, count: 8
INSERT INTO measurements (primary_sequence, metric_name, result) VALUES
  ('ATGLTSGLLSLLLPETLNSPLLET [SLC22A15]', 'protein stability index', 2.1),
  ('KGRHHRGRGGEPRAYFMSDTREEK [CHGB]', 'protein stability index', 4.95),
  ('YMTKPSKSLLPHLKTGNSSPGIGA [RTP4]', 'protein stability index', 3.22),
  ('LQASDRYRDLAGGTGRSAKEQVLR [FCHSD1]', 'protein stability index', 4.29),
  ('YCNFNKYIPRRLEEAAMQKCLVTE [RSAD1]', 'protein stability index', 2.51),
  ('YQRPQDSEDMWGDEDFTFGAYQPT [FBF1]', 'protein stability index', 3.76),
  ('SSSYEQFNGELPNGRHKIPESQFP [SRPK2]', 'protein stability index', 4.21),
  ('PYSFIEFDTFIQKTKKLYIDSRAR [SEC22B]', 'protein stability index', 2.41);

Task: What value of measured protein stability index is listed for SVNEVDFEGRTPMHVACQHGQENI [RIPK4] ?
Result: 4.57

Task: Also FTTFRGTELSFLVTTHQPTNLVLP [EDNRA] , if possible.
Result: 2.29

Task: Also KLVVHDCPVWDIFDSDWYTSRNLI [RHOBTB3] , if possible.
Result: 2.66

Task: Also ELIRNIQELLKRTIMQAVSQIRLN [TEKT4] , if possible.
Result: 2.77

Task: Also GGSTSAHYAVNSQFTMGGPAISMA [CARM1] , if possible.
Result: 2.94
